System: HeLa (cervical cancer) cells
ASSAY_OVERVIEW: Cytotoxicity assay (7-AAD viability, flow cytometry), HeLa
Assay type: cell-based, human
TEST_CONDITIONS: Homo sapiens, HeLa, mean ± SE, at least three experiments in duplicate; viable cells
IC50 reference
Lab book: enter the figure in µM, no units written.

Solved entries:
[[record]]
compound = "CC(=O)O[C@H]1CC[C@@]2(C)C(CC[C@]3(C)C2CC=C2C4[C@@H](C)[C@H](C)CC[C@]4(C(=O)OCC(CO)(CO)NC(=N)N)CC[C@]23C)C1(C)C (single isomer, unassigned) [Compound 18b]"
property_measured = "IC50"
test_result = 11

[[record]]
compound = "CC(=O)O[C@H]1CC[C@@]2(C)C(CC[C@]3(C)C2CCC2C4C(C(C)C)CC[C@]4(C(=O)NCCCN4CCN(CCCN)CC4)CC[C@]23C)C1(C)C (stereo partly drawn) [Compound 8a]"
property_measured = "IC50"
test_result = 6.1


Q) Need IC50 of CC1(C)CC[C@]2(C(=O)O)CC[C@]3(C)C(=CC[C@@H]4[C@@]5(C)CC[C@H](O)C(C)(C)[C@@H]5CC[C@]43C)[C@@H]2C1 [OA, oleanolic acid, reference compound] , thanks.
A) 258

---

System: Jurkat (T-lymphoblastic leukemia) cells
ASSAY_OVERVIEW: cells
Format: cell-based
TEST_CONDITIONS: Homo sapiens, Jurkat, mean ± SE, at least three experiments in duplicate; viable cells; read-out: IC50 Jurkat
PROPERTY_MEASURED: pIC50
In simple prose, pIC50 is minus the logarithm base ten of a concentration in moles per litre.

Record excerpt, results attached:
[[record]]
compound = "CC(C)C1CC[C@]2(C(=O)NCCCCNC(=N)N)CC[C@]3(C)C(CCC4[C@@]5(C)CCC(=O)C(C)(C)C5CC[C@]43C)C12 (some centres unmarked)"
property_measured = "pIC50"
test_result = 4.68

[[record]]
compound = "CC(=O)O[C@H]1CC[C@@]2(C)C(CC[C@]3(C)C2CCC2C4C(C(C)C)CC[C@]4(C(=O)NCCN)CC[C@]23C)C1(C)C (some centres unmarked)"
property_measured = "pIC50"
test_result = 5.64

[[record]]
compound = "C[C@H]1[C@H](C)CC[C@]2(C(=O)O)CC[C@]3(C)C(=CC[C@@H]4[C@@]5(C)CC[C@H](O)C(C)(C)[C@@H]5CC[C@]43C)[C@H]12 [UA, ursolic acid, reference compound]"
property_measured = "pIC50"
test_result = 4.64

[[record]]
compound = "CC(=O)O[C@H]1CC[C@@]2(C)C(CC[C@]3(C)C2CCC2C4C(C(C)C)CC[C@]4(C(=O)NCCCN4CCN(CCCNC(=N)N)CC4)CC[C@]23C)C1(C)C (some centres unmarked) [Compound 13a]"
property_measured = "pIC50"
test_result = 4.62


Please look at the following compound next.
Q) Please provide the recorded pIC50 for CC(=O)O[C@H]1CC[C@@]2(C)C(CC[C@]3(C)C2CCC2C4C(C(C)C)CC[C@]4(C(=O)OCC(CO)(CO)NC(=N)N)CC[C@]23C)C1(C)C (some centres unmarked) [Compound 15c] , tested on Jurkat (T-lymphoblastic leukemia) cells.
A) 5.51

---

Tested on: HeLa (cervical cancer) cells
ASSAY_OVERVIEW: Cytotoxicity assay (7-AAD viability, flow cytometry), HeLa
Format: cell-based, human
TEST_CONDITIONS: Homo sapiens, HeLa, mean ± SE, at least three experiments in duplicate; viable cells
pIC50: −log10 of the molar value.
Hi! Just check whether pIC50 is below 4. Below gives 1, equal or above gives 0.

Q) Answer whether the compound CC(C)C1CC[C@]2(C(=O)NCCCCNC(=N)N)CC[C@]3(C)C(CCC4[C@@]5(C)CC[C@H](O)C(C)(C)C5CC[C@]43C)C12 (some centres unmarked) has pIC50 strictly less than 4
A) 0

Q) Strictly below 4 in pIC50? CC(=O)O[C@H]1CC[C@@]2(C)C(CC[C@]3(C)C2CCC2C4C(C(C)C)CC[C@]4(C(=O)OCC(N)(CO)CO)CC[C@]23C)C1(C)C (some centres unmarked)
A) 0

Q) For CC(=O)O[C@H]1CC[C@@]2(C)C(CC[C@]3(C)C2CC=C2C4CC(C)(C)CC[C@]4(C(=O)OCC(CO)(CO)NC(=N)N)CC[C@]23C)C1(C)C (some centres unmarked) [Compound 20b] , is the recorded pIC50 below the cut-off of 4?
A) 0

Q) Regarding CC(C)[C@@H]1CC[C@]2(C(=O)O)CC[C@]3(C)[C@H](CC[C@@H]4[C@@]5(C)CC[C@H](O)C(C)(C)[C@@H]5CC[C@]43C)[C@@H]12 [Dihydro BA, 20,29-dihydrobetulinic acid, reference compound] , kindly confirm whether its pIC50 is beneath 4.
A) 1

---

Test system: K562 (chronic myeloid leukemia) cells
ASSAY_OVERVIEW: Cytotoxicity assay (7-AAD viability, flow cytometry), K562
Format: cell-based, human
TEST_CONDITIONS: Homo sapiens, K562, read-out: IC50 K562, mean ± SE, at least three experiments in duplicate; viable cells
Description: Cells (Jurkat, K562, U937, HeLa, HEK293 and normal Fibroblasts) were purchased from Russian Cell Culture Collection (Institute of Cytology of the Russian Academy of Sciences, Saint Petersburg, Russia) and cultured according to standard mammalian tissue culture protocols and sterile technique. Human cell lines HEK293 and HeLa were obtained from the HPA Culture Collections (Salisbury, UK). All cell lines used in the study were tested and shown to be free of mycoplasma and viral contamination. […]
PROPERTY_MEASURED: pIC50
Remember, pIC50 is on a log scale: it is -log10 of the molar concentration.

Q) Request the reported pIC50 associated with CC(=O)O[C@H]1CC[C@@]2(C)C(CC[C@]3(C)C2CCC2C4C(C(C)C)CC[C@]4(C(=O)NCCN(CCNC(=N)N)CCNC(=N)N)CC[C@]23C)C1(C)C (single isomer, unassigned) [Compound 12a]
A) 4.05

---

Tested on: Jurkat (T-lymphoblastic leukemia) cells
ASSAY_OVERVIEW: cells
Format: cell-based
TEST_CONDITIONS: Homo sapiens, Jurkat, mean ± SE, at least three experiments in duplicate; viable cells; read-out: IC50 Jurkat
PROPERTY_MEASURED: pIC50
As a rule, pIC50 stands for the negative log10 of the concentration, concentration in M.

[[record]]
compound = "CC(=O)O[C@H]1CC[C@@]2(C)C(CC[C@]3(C)C2CCC2C4C(C(C)C)CC[C@]4(C(=O)NCCCCN)CC[C@]23C)C1(C)C (some centres unmarked)"
test_result = 5.11

[[record]]
compound = "CC(=O)O[C@H]1CC[C@@]2(C)C(CC[C@]3(C)C2CCC2C4C(C(C)C)CC[C@]4(C(=O)OCC(N)(CO)CO)CC[C@]23C)C1(C)C (some centres unmarked)"
test_result = 5.48

[[record]]
compound = "CC(C)[C@@H]1CC[C@]2(C(=O)O)CC[C@]3(C)[C@H](CC[C@@H]4[C@@]5(C)CC[C@H](O)C(C)(C)[C@@H]5CC[C@]43C)[C@@H]12 [Dihydro BA, 20,29-dihydrobetulinic acid, reference compound]"
test_result = 4.23


Q) Given the compound CC(C)C1CC[C@]2(C(=O)NCCCCNC(=N)N)CC[C@]3(C)C(CCC4[C@@]5(C)CC[C@H](O)C(C)(C)C5CC[C@]43C)C12 (some centres unmarked) , what is its reported pIC50?
A) 4.77

Q) Look at this compound and give its reported pIC50. CC1(C)CC[C@]2(C(=O)O)CC[C@]3(C)C(=CC[C@@H]4[C@@]5(C)CC[C@H](O)C(C)(C)[C@@H]5CC[C@]43C)[C@@H]2C1 [OA, oleanolic acid, reference compound]
A) 3.57

---

Structures can show the parent of a compound that is named as a salt.
PROPERTY_MEASURED: melting point

Below: 2 molecules and their reported melting point.
[[record]]
molecule = "CC(C)C1CC[C@]2(C(=O)NCCCCN)CC[C@]3(C)C(CCC4[C@@]5(C)CCC(=O)C(C)(C)C5CC[C@]43C)C12 (stereo partly drawn) [Compound 4, N-(4-Aminobuthyl)-3-oxolupane-28-amide]"
test_result = "170 to 172 °C"

[[record]]
molecule = "CC(=O)O[C@H]1CC[C@@]2(C)C(CC[C@]3(C)C2CCC2C4C(C(C)C)CC[C@]4(C(=O)NCCN(CCNC(=N)N)CCNC(=N)N)CC[C@]23C)C1(C)C (single isomer, unassigned) (as salt: trifluoroacetate) [Compound 12a]"
test_result = "116 to 118 °C"


Please find the next molecule below.
Q) Entry CC(=O)O[C@H]1CC[C@@]2(C)C(CC[C@]3(C)C2CCC2C4C(C(C)C)CC[C@]4(C(=O)NCCCN4CCN(CCCN)CC4)CC[C@]23C)C1(C)C (stereo partly drawn) : reported melting point = ?
A) 119 to 121 °C
